Assign MCH-2R Agonist Activation % to each entry below.
EXPERIMENTAL_SYSTEM: human MCH-2R (Homo sapiens)
Sequence (Q969V1 whole entry): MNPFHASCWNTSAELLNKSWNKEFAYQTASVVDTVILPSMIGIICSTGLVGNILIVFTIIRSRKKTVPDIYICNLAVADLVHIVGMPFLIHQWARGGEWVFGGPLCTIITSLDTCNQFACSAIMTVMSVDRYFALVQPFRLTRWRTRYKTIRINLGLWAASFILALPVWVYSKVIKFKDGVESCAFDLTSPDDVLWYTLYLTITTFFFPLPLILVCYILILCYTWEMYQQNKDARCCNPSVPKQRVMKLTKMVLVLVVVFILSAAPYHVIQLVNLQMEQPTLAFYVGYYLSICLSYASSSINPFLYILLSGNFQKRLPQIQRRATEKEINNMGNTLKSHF
ASSAY_TEXT: Aequorin bioluminescence functional assay, MCH-2R agonist activity
DETAILS: 293-AEQ17 cells expressing human MCH-2R
Where a SMILES comes first, the peptide text is derived from it. Bridges are numbered along the chain shown (N, C = ends). [ ]: non-standard residue; d: D form. The star is where a group is joined. Pentanoyl(5-guanidino) = NC(N)=NCCCCC(=O)*; dNle = CCCC[C@@H](N)C(=O)O; Ava = NCCCCC(=O)O
One number for each entry, in %.

MOLECULE	MCH-2R Agonist Activation % [%]
CSCC[C@@H]1NC(=O)[C@@H](NC(=O)CCCCNC(=N)N)CSSC[C@@H](C(N)=O)NC(=O)[C@@H]2CCCN2C(=O)[C@H](CCCNC(=N)N)NC(=O)[C@H](Cc2ccc(O)cc2)NC(=O)[C@H](C(C)C)NC(=O)[C@H](CCCNC(=N)N)NC(=O)CCCCNC(=O)CCCCNC1=O [SEQ. ID. NO. 5] ({Pentanoyl(5-guanidino)}-CM[Ava][Ava]RVYRPC-NH2; disulfide 1-10 (inferred); C-terminus assumed)	31

Batch request: MCH-2R Agonist Activation % per item, same order as input.
1. CSCC[C@@H]1NC(=O)[C@@H](NC(=O)[C@@H](CCCNC(=N)N)NC(C)=O)CSSC[C@@H](C(N)=O)NC(=O)CCCCNC(=O)CCCCNC(=O)[C@H](Cc2ccc(O)cc2)NC(=O)[C@H](C(C)C)NC(=O)[C@H](CCCNC(=N)N)NC(=O)CCCCNC(=O)CCCCNC1=O [SEQ. ID. NO. 33] (Ac-[dR]CM[Ava][Ava]RVY[Ava][Ava]C-NH2; disulfide 2-11 (inferred); C-terminus assumed)
2. C[C@@H]1NC(=O)[C@@H](NC(=O)CCCCNC(=N)N)CSSC[C@@H](C(=O)O)NC(=O)CCCCNC(=O)CCCCNC(=O)[C@H](Cc2ccc(O)cc2)NC(=O)[C@H](C)NC(=O)[C@H](CCCNC(=N)N)NC(=O)CCCCNC(=O)CCCCNC1=O [SEQ. ID. NO. 34] ({Pentanoyl(5-guanidino)}-CA[Ava][Ava]RAY[Ava][Ava]C-OH; disulfide 1-10)
3. CSCC[C@@H]1NC(=O)[C@@H](NC(=O)CCCCNC(=N)N)CSSC[C@@H](C(N)=O)NC(=O)CCCCNC(=O)CCCCNC(=O)[C@H](Cc2ccc(O)cc2)NC(=O)[C@H](C)NC(=O)[C@H](CCCNC(=N)N)NC(=O)CNC(=O)[C@H](CC(C)C)NC1=O [SEQ. ID. NO. 20] ({Pentanoyl(5-guanidino)}-CMLGRAY[Ava][Ava]C-NH2; disulfide 1-10; C-terminus assumed)
4. CSCC[C@@H]1NC(=O)[C@@H](NC(=O)CCCCNC(=N)N)CSSC[C@@H](C(N)=O)NC(=O)CCNC(=O)CCNC(=O)[C@H](Cc2ccc(O)cc2)NC(=O)[C@H](C(C)C)NC(=O)[C@H](CCCNC(=N)N)NC(=O)CNC(=O)[C@H](CC(C)C)NC1=O
5. CCCC[C@H]1NC(=O)[C@H](CC(C)C)NC(=O)[C@H](CCSC)NC(=O)[C@@H](NC(=O)[C@H](CCCNC(=N)N)NC(C)=O)CSSC[C@@H](C(N)=O)NC(=O)CCCCNC(=O)CCCCNC(=O)[C@H](Cc2ccc(O)cc2)NC(=O)[C@H](C(C)C)NC(=O)[C@H](CCCNC(=N)N)NC1=O [SEQ. ID. NO. 26] (Ac-RCML[dNle]RVY[Ava][Ava]C-NH2; disulfide 2-11; C-terminus assumed)
6. CSCC[C@@H]1NC(=O)[C@@H](NC(=O)CCCNC(=N)N)CSSC[C@@H](C(N)=O)NC(=O)CCCCNC(=O)CCCCNC(=O)[C@H](Cc2ccc(O)cc2)NC(=O)[C@H](C(C)C)NC(=O)[C@H](CCCNC(=N)N)NC(=O)CNC(=O)[C@H](CC(C)C)NC1=O

A)
1. 28
2. 28
3. 38
4. 32
5. 91
6. 14
